Would you kindly list PBM binding z-score for each of these sequences?
tested on: PPARg DBDmut:RXRa IVT, anti-PPARg (DBD mutation: PPARg1 K132A/R137A, NR concentration 270 nM, RXRa partner concentration 90 nM); test: PBM binding z-score (relative to random genomic background probes); higher = stronger binding; sequences stand for … in GC…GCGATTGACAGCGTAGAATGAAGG
Answers are plain numbers.

Known results for sequences:
{"columns": ["seq-text", "recorded-measurement"],
 "data": [
  ["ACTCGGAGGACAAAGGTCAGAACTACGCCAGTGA", 0.492],
  ["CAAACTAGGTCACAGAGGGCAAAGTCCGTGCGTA", 5.61],
  ["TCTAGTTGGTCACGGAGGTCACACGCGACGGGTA", 1.06]
]}

Read the next record carefully.
q: Please report the recorded PBM binding z-score for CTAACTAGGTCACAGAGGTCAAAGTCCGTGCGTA .
a: 7.21
